Parameter Activity at 10 μM (% of remaining PCSK9): see the listing below.
EXPERIMENTAL SYSTEM: PCSK9 (Homo sapiens, UniProt Q8NBP7)
Construct: endogenous in cells; host or cells: HepG2 (ATCC HB-8065)
Sequence (Q8NBP7 153-692): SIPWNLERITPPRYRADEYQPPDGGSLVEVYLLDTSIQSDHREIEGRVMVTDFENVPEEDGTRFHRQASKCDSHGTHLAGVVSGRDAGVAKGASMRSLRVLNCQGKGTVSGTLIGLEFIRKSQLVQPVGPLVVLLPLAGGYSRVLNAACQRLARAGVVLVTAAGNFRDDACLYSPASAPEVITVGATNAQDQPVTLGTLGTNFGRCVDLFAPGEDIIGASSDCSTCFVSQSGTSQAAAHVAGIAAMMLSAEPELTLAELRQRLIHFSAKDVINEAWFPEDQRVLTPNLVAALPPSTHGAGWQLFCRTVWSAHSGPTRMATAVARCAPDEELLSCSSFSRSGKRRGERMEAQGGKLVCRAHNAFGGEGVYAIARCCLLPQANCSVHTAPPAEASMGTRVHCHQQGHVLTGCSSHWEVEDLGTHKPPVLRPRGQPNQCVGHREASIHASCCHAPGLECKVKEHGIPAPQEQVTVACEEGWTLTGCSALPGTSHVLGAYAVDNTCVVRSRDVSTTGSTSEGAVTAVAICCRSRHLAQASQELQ
METHOD SUMMARY: ELISA of secreted (extracellular, medium) PCSK9 in HepG2 cells
Assay type: cell-based
ASSAY SETUP: 10 μM compound, HepG2 cells, DMSO = 100%

>  <COMPOUND>
O=C(c1cc2cc(F)ccc2[nH]1)c1c[nH]c2c(F)cccc12 [HX240]

>  <EXPERIMENTAL SYSTEM>
PCSK9 (Homo sapiens, UniProt Q8NBP7)

>  <MEASURE UNIT>
%

>  <Activity at 10 μM (% of remaining PCSK9)>
15

$$$$
>  <COMPOUND>
Cn1c(C(=O)c2c[nH]c3c(F)cccc23)nc2ccc(F)cc21 [HX261]

>  <EXPERIMENTAL SYSTEM>
PCSK9 (Homo sapiens, UniProt Q8NBP7)

>  <MEASURE UNIT>
%

>  <Activity at 10 μM (% of remaining PCSK9)>
20

$$$$
>  <COMPOUND>
OCCn1c(Cc2c[nH]c3c(F)cccc23)nc2ccc(F)cc21 [HX183]

>  <EXPERIMENTAL SYSTEM>
PCSK9 (Homo sapiens, UniProt Q8NBP7)

>  <MEASURE UNIT>
%

>  <Activity at 10 μM (% of remaining PCSK9)>
27

$$$$
>  <COMPOUND>
CC(C)(C)Cn1c(Cc2c[nH]c3c(F)cccc23)nc2ccc(F)cc21 [HX186]

>  <EXPERIMENTAL SYSTEM>
PCSK9 (Homo sapiens, UniProt Q8NBP7)

>  <MEASURE UNIT>
%

>  <Activity at 10 μM (% of remaining PCSK9)>
73

$$$$
>  <COMPOUND>
CC(C)Cn1c(Cc2c[nH]c3c(F)cccc23)nc2ccc(F)cc21 [HX185]

>  <EXPERIMENTAL SYSTEM>
PCSK9 (Homo sapiens, UniProt Q8NBP7)

>  <MEASURE UNIT>
%

>  <Activity at 10 μM (% of remaining PCSK9)>
42

$$$$
>  <COMPOUND>
O=C(c1cc2ccccc2[nH]1)c1c[nH]c2c(F)cccc12 [HX258]

>  <EXPERIMENTAL SYSTEM>
PCSK9 (Homo sapiens, UniProt Q8NBP7)

>  <MEASURE UNIT>
%

>  <Activity at 10 μM (% of remaining PCSK9)>
14

$$$$
>  <COMPOUND>
O=C(c1nc2ccccc2[nH]1)c1c[nH]c2ccccc12 [HX262]

>  <EXPERIMENTAL SYSTEM>
PCSK9 (Homo sapiens, UniProt Q8NBP7)

>  <MEASURE UNIT>
%

>  <Activity at 10 μM (% of remaining PCSK9)>
20

$$$$
>  <COMPOUND>
Cn1c(Cc2c[nH]c3c(F)cccc23)nc2ccc(F)cc21 [HX184]

>  <EXPERIMENTAL SYSTEM>
PCSK9 (Homo sapiens, UniProt Q8NBP7)

>  <MEASURE UNIT>
%

>  <Activity at 10 μM (% of remaining PCSK9)>
10

$$$$
>  <COMPOUND>
Fc1ccc2nc(Cc3c[nH]c4c(F)cccc34)n(CCc3ccccc3)c2c1 [HX179]

>  <EXPERIMENTAL SYSTEM>
PCSK9 (Homo sapiens, UniProt Q8NBP7)

>  <MEASURE UNIT>
%

>  <Activity at 10 μM (% of remaining PCSK9)>
48

$$$$
>  <COMPOUND>
O=C(c1nc2ccccc2[nH]1)c1c[nH]c2c(F)cccc12 [MF025]

>  <EXPERIMENTAL SYSTEM>
PCSK9 (Homo sapiens, UniProt Q8NBP7)

>  <MEASURE UNIT>
%

>  <Activity at 10 μM (% of remaining PCSK9)>
21

$$$$
>  <COMPOUND>
O=C(c1cc2ccccc2[nH]1)c1c[nH]c2ccccc12 [HX257]

>  <EXPERIMENTAL SYSTEM>
PCSK9 (Homo sapiens, UniProt Q8NBP7)

>  <MEASURE UNIT>
%

>  <Activity at 10 μM (% of remaining PCSK9)>
13

$$$$
>  <COMPOUND>
[2H]C([2H])(c1nc2cc(F)ccc2[nH]1)c1c[nH]c2c(F)cccc12 [HX212]

>  <EXPERIMENTAL SYSTEM>
PCSK9 (Homo sapiens, UniProt Q8NBP7)

>  <MEASURE UNIT>
%

>  <Activity at 10 μM (% of remaining PCSK9)>
25

$$$$
>  <COMPOUND>
Fc1ccc2nc(Cc3c[nH]c4c(F)cccc34)n(Cc3ccccc3)c2c1 [HX178]

>  <EXPERIMENTAL SYSTEM>
PCSK9 (Homo sapiens, UniProt Q8NBP7)

>  <MEASURE UNIT>
%

>  <Activity at 10 μM (% of remaining PCSK9)>
31

$$$$
>  <COMPOUND>
O=C(c1cc2cc(F)ccc2[nH]1)c1c[nH]c2ccccc12 [HX259]

>  <EXPERIMENTAL SYSTEM>
PCSK9 (Homo sapiens, UniProt Q8NBP7)

>  <MEASURE UNIT>
%

>  <Activity at 10 μM (% of remaining PCSK9)>
13

$$$$
>  <COMPOUND>
Fc1ccc2nc(Cc3c[nH]c4c(F)cccc34)n(Cc3cccnc3)c2c1 [HX182]

>  <EXPERIMENTAL SYSTEM>
PCSK9 (Homo sapiens, UniProt Q8NBP7)

>  <MEASURE UNIT>
%

>  <Activity at 10 μM (% of remaining PCSK9)>
89

$$$$
>  <COMPOUND>
Fc1ccc2nc(Cc3c[nH]c4c(F)cccc34)n(Cc3ccncc3)c2c1 [HX181]

>  <EXPERIMENTAL SYSTEM>
PCSK9 (Homo sapiens, UniProt Q8NBP7)

>  <MEASURE UNIT>
%

>  <Activity at 10 μM (% of remaining PCSK9)>
33

$$$$
>  <COMPOUND>
O=C(c1nc2ccc(F)cc2[nH]1)c1c[nH]c2c(F)cccc12 [HX235]

>  <EXPERIMENTAL SYSTEM>
PCSK9 (Homo sapiens, UniProt Q8NBP7)

>  <MEASURE UNIT>
%

>  <Activity at 10 μM (% of remaining PCSK9)>
26

$$$$
